Value source: patent US20040023887A1

- TESTED_SYSTEM: soluble human insulin receptor-immunoglobulin heavy chain chimera (human) (UniProt P06213)
- ASSAY_NAME: phage ELISA
Measured ratio over background of individual entries
ASSAY_METRIC: ratio over background

>  <BINDER>
SQAGSAFYAWFDQVLRTVHSA [20E2Bβ-4-G6-IR]

>  <ASSAY_METRIC>
ratio over background

>  <MEASURED_VALUE>
1.9

$$$$
>  <BINDER>
RGAVAGFHDQFYDWFDRQVSRVHKFG [H2CA-4-H9-IGFR]

>  <ASSAY_METRIC>
ratio over background

>  <MEASURED_VALUE>
1.9

$$$$
>  <BINDER>
CCTTEMVVMDARDDPFYHKLSELVTGG [B6Hα-1-B5-IR]

>  <ASSAY_METRIC>
ratio over background

>  <MEASURED_VALUE>
1

$$$$
>  <BINDER>
QPDHSYFYSLLQELVGSEERL [20E2B-4-F9-IGFR]

>  <ASSAY_METRIC>
ratio over background

>  <MEASURED_VALUE>
1.9

$$$$
>  <BINDER>
YRGMLVLGRISGGAGKAASERPARIGQKVSAVNFYDWFV [A6L-0-E3-IR]

>  <ASSAY_METRIC>
ratio over background

>  <MEASURED_VALUE>
2

$$$$
